Target: T1, TNFR1 (Homo sapiens, UniProt P19438)
T1 chain: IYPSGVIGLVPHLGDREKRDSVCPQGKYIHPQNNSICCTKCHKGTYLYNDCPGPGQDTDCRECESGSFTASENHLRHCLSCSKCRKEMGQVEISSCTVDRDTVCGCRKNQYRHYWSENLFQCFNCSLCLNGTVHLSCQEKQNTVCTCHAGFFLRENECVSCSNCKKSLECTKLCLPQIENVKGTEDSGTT
Test: yeast display SC50
MEASURED QUANTITY: apparent Kd (screen) (nM)
All answers are understood in nM, so give the number only.

BINDER: M58W (designed binder) SMEEEVEKAAKEYEKKKKEAIEKHLEKLKAKDKEAAERFLKELEEAAKEYAKDEAKTWSEEEAKRRAKKYKEKVLLSELSEEEQKEIKEAEEKLVRTILKYVEEAAK
apparent Kd (screen) (nM): 18.3
//
BINDER: A20L (designed binder) SMEEEVEKAAKEYEKKKKELIEKHLEKLKAKDKEAAERFLKELEEAAKEYAKDEAKTMSEEEAKRRAKKYKEKVLLSELSEEEQKEIKEAEEKLVRTILKYVEEAAK
apparent Kd (screen) (nM): 0.405
//
BINDER: K69G (designed binder) SMEEEVEKAAKEYEKKKKEAIEKHLEKLKAKDKEAAERFLKELEEAAKEYAKDEAKTMSEEEAKRRAKGYKEKVLLSELSEEEQKEIKEAEEKLVRTILKYVEEAAK
apparent Kd (screen) (nM): 2.25

Shifting focus to the binder that follows.
QUERY: Tell us which apparent Kd (screen) value is on record for E91H (designed binder) SMEEEVEKAAKEYEKKKKEAIEKHLEKLKAKDKEAAERFLKELEEAAKEYAKDEAKTMSEEEAKRRAKKYKEKVLLSELSEEEQKEIKEAHEKLVRTILKYVEEAAK
RESULT: 4.39
